Origin of values: patent US12037333B2

Test system: Influenza type A (strain A/PR/8/34, ATCC VR-95)
Test: Influenza antiviral assay: inhibition of virus-induced cytopathic effects (CPE) in MDCK cells, XTT dye reduction
Format: cell-based
Details: Influenza A virus, H1N1 / PR/8, MDCK, 96 h, strain A/PR/8/34, MDCK cells, CPE inhibition at 4 days
Some compounds, each annotated with its measured EC50.

Field: example entries. Status: answers known.
>  <COMPOUND>
COCCN1CN(C23c4ccccc4CC2Cc2c(Cl)cccc23)n2ccc(=O)c(O)c2C1=O (stereo not drawn) [Compound A101]

>  <EC50>
125 to 250 nM

$$$$
>  <COMPOUND>
CCN1CN(C23c4cccc(F)c4CC2Cc2c(Cl)cccc23)n2ccc(=O)c(O)c2C1=O (stereo not drawn) [Compound A151]

>  <EC50>
< 125 nM

$$$$
>  <COMPOUND>
CN1CN(C23c4ccccc4CC2Cc2c3ccc(F)c2F)n2ccc(=O)c(O)c2C1=O (stereo not drawn) [Compound A6]

>  <EC50>
< 125 nM

$$$$

The compound listed as CCCN1CN(C23c4cccc(F)c4CC2Cc2c(F)cccc23)n2ccc(=O)c(O)c2C1=O (stereo not drawn) [Compound A153] shows EC50 equal to < 125 nM

The compound listed as O=C1c2c(O)c(=O)ccn2N(C23c4ccccc4CC2Cc2c3ccc(F)c2F)CN1CCF (stereo not drawn) [Compound A74] shows EC50 equal to 125 to 250 nM

The compound listed as O=C1c2c(O)c(=O)ccn2N(C23c4ccccc4CC2Cc2c3ccc(F)c2F)CN1C1CCC1 (stereo not drawn) [Compound A92] shows EC50 equal to 250 to 375 nM

The compound listed as COCCN1C(=O)c2c(O)c(=O)ccn2N(C23c4ccccc4CC2Cc2c3ccc(F)c2F)C1C (stereo not drawn) [Compound A113] shows EC50 equal to 125 to 250 nM

The compound listed as O=C1c2c(O)c(=O)ccn2N(C23c4ccccc4CC2Cc2c(Cl)cccc23)CN1CCCF (stereo not drawn) [Compound A102] shows EC50 equal to 125 to 250 nM

The compound listed as O=C1c2c(O)c(=O)ccn2N(C23c4ccccc4CC2Cc2c3ccc(F)c2F)CN1Cc1ccc(F)cc1 (stereo not drawn) [Compound A17] shows EC50 equal to 125 to 250 nM

The compound listed as CC1N(C)C(=O)c2c(O)c(=O)ccn2N1C12c3cccc(F)c3CC1Cc1c(F)cccc12 (stereo not drawn) [Compound A73] shows EC50 equal to < 125 nM

The compound listed as O=C1c2c(O)c(=O)ccn2N(C23c4ccccc4CC2Cc2c3ccc(F)c2F)CN1Cc1ccccc1 (stereo not drawn) [Compound A11] shows EC50 equal to > 500 nM

The compound listed as O=C1c2c(O)c(=O)ccn2N(C23c4ccccc4CC2Cc2c3ccc(F)c2F)CN1CCc1ccccc1 (stereo not drawn) [Compound A25] shows EC50 equal to < 125 nM

The compound listed as CC1N(CC2CC2)C(=O)c2c(O)c(=O)ccn2N1C12c3ccccc3CC1Cc1c(Cl)cccc12 (stereo not drawn) [Compound A140] shows EC50 equal to 250 to 375 nM

The compound listed as CC(C)CN1CN(C23c4ccccc4CC2Cc2c3ccc(F)c2F)n2ccc(=O)c(O)c2C1=O (stereo not drawn) [Compound A149] shows EC50 equal to < 125 nM

The compound listed as O=C1c2c(O)c(=O)ccn2N(C23c4cccc(F)c4CC2Cc2c(F)cccc23)CN1CC1CCCCO1 (stereo not drawn) [Compound A130] shows EC50 equal to > 500 nM
